Cited source: patent US20250282799A1

Listed molecules paired with reported pIC50
# study target: KRAS (G12D)/CRAF (Homo sapiens (Human), UniProt P01116, G12D)
# Sequence (P01116-2 other isoform, or with tags, fused parts or gaps G12D): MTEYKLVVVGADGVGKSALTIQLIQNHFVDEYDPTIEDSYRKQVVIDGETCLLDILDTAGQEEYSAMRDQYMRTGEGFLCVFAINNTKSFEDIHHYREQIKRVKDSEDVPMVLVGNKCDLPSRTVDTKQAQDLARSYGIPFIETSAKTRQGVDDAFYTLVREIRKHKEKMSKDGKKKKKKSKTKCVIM
# assay notes: TR-FRET biochemical KRAS:CRAF protein:protein interaction assay, KRAS (G12D)
# experimental conditions: GMPPNP loaded Biotin-KRAS (G12D), FLAG CRAF RBD; read-out: TR-Fret_PPI KRAS (G12D)/CRAF IC50
pIC50: −log10 of the molar value.

Worked cases, answers included:
>  <molecule>
[2H]C([2H])(Oc1nc(N2CCOC[C@@H]3[C@H](F)[C@@H]32)c2cnc(-c3cc(N)cc4ccc(F)c(C#C)c34)c(F)c2n1)[C@@]12CCCN1C[C@H](F)C2 [Example 224]

>  <pIC50>
< 5.52

$$$$
>  <molecule>
[2H]C([2H])(Oc1nc(N2CCCC[C@@H]3[C@H](F)[C@@H]32)c2cnc(-c3cc(N)cc4cc(F)c(F)c(C#C)c34)c(F)c2n1)[C@@]12CCCN1C[C@H](F)C2 [Example 14]

>  <pIC50>
≤ 5.00

$$$$

Name the recorded pIC50 for [2H]C([2H])(Oc1nc(N2CCOC[C@@H]3[C@@H](F)[C@@H]32)c2cnc(-c3cc(N)cc4ccc(F)c(C#C)c34)c(F)c2n1)[C@@]12CCCN1C[C@H](F)C2 [Example 221] .
< 5.52
